These data points were gathered from the METLIN SMRT retention time set (Domingo-Almenara et al. 2019).

Listing: RP-LC retention time of selected compounds
# ASSAY_DETAILS: gradient 5% acetonitrile 3 min, to 50% in 2 min, to 85% in 15 min, held 3 min, 100 µL/min
# CONDITION: column: Zorbax Extend-C18 2.1 x 50 mm; eluents: water / acetonitrile, 0.1% formic acid
Give the quantity in s, number only.

Recorded results for 6 compounds are shown here.
[[record]]
compound = "O=C(CSc1ccc(N2CCCC(C(=O)NC3CC3)C2)nn1)NCc1ccccc1Cl (stereo unspecified)"
reading_unit = "s"
value_measured = 635

[[record]]
compound = "CCN(C1CCOCC1)C1CN(S(=O)(=O)c2cccc(F)c2)C1"
reading_unit = "s"
value_measured = 597

[[record]]
compound = "CCN1C(=O)C2(CCN(S(=O)(=O)c3c(C)noc3C)CC2)c2ccccc21"
reading_unit = "s"
value_measured = 731

[[record]]
compound = "Cc1cccc(NC(=O)Cn2cnc3nc(N4CCCC(C(=O)NC5CC5)C4)sc3c2=O)c1C (stereo unspecified)"
reading_unit = "s"
value_measured = 688

[[record]]
compound = "CCC(C)C(NC(=O)c1sccc1C)C(=O)Nc1nc2ccccc2[nH]1 (stereo unspecified)"
reading_unit = "s"
value_measured = 746

[[record]]
compound = "O=C(NCc1cccnc1)C1CCCN(c2ncnc3c2nc2n3CCCCC2)C1 (stereo unspecified)"
reading_unit = "s"
value_measured = 577


# input Indicate its recorded RP-LC retention time; the compound in question is O=C(Cn1ncc2c(N3CCN(c4ccccn4)CC3)ncnc21)Nc1cccc(F)c1
# output 563

# input Recall and state the measured RP-LC retention time for CN(CCc1noc(-c2ccc(Cl)cc2)n1)C(=O)NCc1ccco1 .
# output 868

# input Could you please provide reported RP-LC retention time for Cc1noc(C)c1S(=O)(=O)NCCn1c(C)cnc1-c1ccncc1 ? Thanks!
# output 570

# input Give RP-LC retention time for COC(=O)c1cc(S(=O)(=O)N2CCCC2C(=O)NCc2ccc(F)cc2)cn1C (stereo unspecified)
# output 799

# input Please give measured RP-LC retention time of the following entry: Cc1cc(C)n(-c2ccnc(N3CCC(C(=O)N4CCCC4)CC3)n2)n1
# output 739
